test system: LEFSS: sprangletop including Chinese sprangletop (Leptochloa chinensis), green sprangletop (Leptochloa dubia); assay: Postemergence Herbicidal Activity in Direct Seeded Rice; assay type: in vivo; details: Growth reduction of 80% of plant growth, probit analysis
METRIC NAME: GR80, LEFSS (g ai/ha)
Write down the numeric answer in g ai/ha and omit the unit.

Worked examples, 2 molecules total:
COC(=O)c1nc(-c2ccc(C(F)(F)F)nc2)c(Cl)c(N)c1Cl : 53
COC(=O)c1nc(-c2ccc(C(F)(F)F)nc2)c(C)c(N)c1Cl : 133

Let us move to another entry and its GR80, LEFSS.
Asked: Which value of GR80, LEFSS has been reported for COC(=O)c1nc(-c2ccc(C(F)(F)F)nc2)c(F)c(N)c1Cl in the records?
Given back: 48

###

tested on: Key Grass and Sedge Weeds as well as Grass Crops; experiment: Post-Emergent Test II (Table 6); assay type: in vivo; conditions: post-emergence, 336 h, ZEAMX: maize, corn (Zea mays), 70 g ai/ha, 14 days after application, read-out: Visual Growth Reduction (%) 14 Days After Application ZEAMX
We begin with a simple list: items and their reported pest or weed control at 70 g/ha.

COC(=O)c1nc(-c2ccc(F)nc2)c(F)c(N)c1Cl : 0 to 29%

Asked: Reported pest or weed control at 70 g/ha for COC(=O)c1nc(-c2ccc(Cl)c(F)c2C)cc(N)c1Cl : what is it?
Given back: 60 to 74%

Asked: Entry C=Cc1c(-c2cc(N)c(Cl)c(C(=O)OC)n2)ccc(Cl)c1F has what pest or weed control at 70 g/ha?
Given back: 0 to 29%

###

test system: HORSS; test: Post-Emergent Test III (Wheat and Barley); type: in vivo; conditions: Hordeum vulgare, post-emergence, 504 h; 70 g ai/ha, postemergence; read-out: Visual Growth Reduction (%) 21 Days After Application, HORSS
Reported pest or weed control at 70 g/ha by item:

Cc1c(-c2ccc(C(F)(F)F)nc2)nc(C(=O)O)c(Cl)c1N [Compound 51] : 75 to 84%
COC(=O)c1nc(-c2ccc(Cl)c(F)c2C)cc(N)c1Cl [Compound 73] : 60 to 74%

Asked: Sample Cc1c(-c2cc(N)c(Cl)c(C(=O)O)n2)ccc(Cl)c1F [Compound 52] — what was its pest or weed control at 70 g/ha?
Given back: 75 to 84%

Asked: GET /values?readout=pest or weed control at 70 g/ha&item= Nc1c(F)c(-c2ccc(C3CC3)nc2)nc(C(=O)O)c1Cl [Compound 36]
Given back: 75 to 84%

###

# pest or weed control at 70 g/ha per entry
tested on: Key Grass and Sedge Weeds as well as Grass Crops; test: Post-Emergent Test II (Table 6); assay type: in vivo; settings: post-emergence, 336 h, CYPSS, 70 g ai/ha, 14 days after application, read-out: Visual Growth Reduction (%) 14 Days After Application CYPSS

For orientation, consider the following solved cases.
COC(=O)c1nc(-c2ccc(C)nc2F)c(F)c(N)c1Cl : 0 to 29%
COC(=O)c1nc(-c2ccc(Cl)nc2F)cc(N)c1Cl : 60 to 74%
COC(=O)c1nc(-c2ccc(Cl)nc2OC)cc(N)c1Cl : 0 to 29%
Nc1cc(-c2ccc(Cl)c(F)c2C(=O)O)nc(C(=O)O)c1Cl : 0 to 29%
COC(=O)c1nc(-c2ccc(Cl)c(Cl)c2Cl)c(F)c(N)c1Cl : 0 to 29%

Lab note: next compound to report on.
Asked: Quick one: pest or weed control at 70 g/ha for COC(=O)c1nc(-c2ccc(C(F)(F)F)nc2)c(Cl)c(N)c1Cl ?
Given back: 30 to 44%

###

tested on: Key Grass and Sedge Weeds as well as Grass Crops; test: Post-Emergent Test II (Table 6); format: in vivo; conditions: post-emergence, 336 h, DIGSA: crabgrass (Digitaria sanguinalis), 70 g ai/ha, 14 days after application, read-out: Visual Growth Reduction (%) 14 Days After Application DIGSA
METRIC NAME: pest or weed control at 70 g/ha

Asked: Which pest or weed control at 70 g/ha value belongs to COC(=O)c1nc(-c2ccc(C(F)(F)F)nc2)nc(N)c1Cl ?
Given back: 0 to 29%

Asked: pest or weed control at 70 g/ha for COC(=O)c1nc(-c2ccc(Cl)c(F)c2OC)c(F)c(N)c1Cl ?
Given back: 0 to 29%

Asked: Any idea what pest or weed control at 70 g/ha was measured for COC(=O)c1nc(-c2ccc(Cl)c(F)c2C)c(F)c(N)c1Cl ?
Given back: 0 to 29%

Asked: Value lookup for pest or weed control at 70 g/ha; key = COC(=O)c1nc(-c2ccc(Cl)nc2F)cc(N)c1Cl
Given back: 0 to 29%

###

Items are presented alongside their recorded GR80, SETVI.
Test system: SETVI (green foxtail)
Assay: Post-Emergent Test III (Wheat and Barley)
Format: in vivo, Setaria viridis
Settings: effective dose for growth reduction of 80 percent, probit analysis
Description: Seeds of the desired test plant species were planted in Sun Gro MetroMix® 306 planting mixture, which typically has a pH of 6.0 to 6.8 and an organic matter content of about 30 percent, in plastic pots with a surface area of 103.2 square centimeters (cm^2). […] A weighed amount, determined by the highest rate to be tested, of each test compound was placed in a 25 mL glass vial and was dissolved in 4 mL of a 97:3 v/v mixture of acetone and DMSO to obtain concentrated stock solutions. […]

Worked cases, GR80, SETVI given:
COC(=O)c1nc(-c2ccc(Cl)c(F)c2OC)c(F)c(N)c1Cl [Compound 39] : >140 g ai/ha
COC(=O)c1nc(-c2ccc(Cl)c(F)c2OC)cc(N)c1Cl [Compound 20] : >140 g ai/ha

Asked: Entry under review: Nc1c(F)c(-c2ccc(C3CC3)nc2)nc(C(=O)O)c1Cl [Compound 36] . Reported GR80, SETVI?
Given back: >140 g ai/ha

###

tested on: Key Broadleaf Weed and Crop Species; assay: Post-Emergent Test II (Table 5); assay type: in vivo; settings: Euphorbia heterophylla, post-emergence, 336 h, EPHHL: wild poinsettia (Euphorbia heterophylla), application rate 140 (kg ai/ha; footnote: g ai/ha), read-out: Visual Growth Reduction (%) 14 Days After Application EPHHL
METRIC NAME: pest or weed control at 140 g/ha

// below: answered compounds
COC(=O)c1nc(-c2ccc(Br)nc2)c(F)c(N)c1Cl [Compound 22] : 95 to 100%
COC(=O)c1nc(-c2ccc(Cl)c(F)c2Cl)cc(N)c1Cl [Compound 72] : 85 to 94%
COC(=O)c1nc(-c2ccc(OC)nc2Cl)c(F)c(N)c1Cl [Compound 88] : 0 to 29%
COC(=O)c1nc(-c2ccc(C)nc2)c(F)c(N)c1Cl [Compound 90] : 95 to 100%
Cc1c(-c2cc(N)c(Cl)c(C(=O)O)n2)ccc(Cl)c1Cl [Compound 28] : 0 to 29%
COC(=O)c1nc(-c2ccc(Cl)c(F)c2SC)cc(N)c1Cl [Compound 58] : 0 to 29%

Asked: Any idea what pest or weed control at 140 g/ha came out for COC(=O)c1nc(-c2ccc(Cl)c(F)c2C)cc(N)c1Cl [Compound 73] on Key Broadleaf Weed and Crop Species?
Given back: 75 to 84%

Asked: Kindly state the measured pest or weed control at 140 g/ha obtained for COC(=O)c1nc(-c2ccc(Cl)c(F)c2C)c(F)c(N)c1Cl [Compound 68] with Key Broadleaf Weed and Crop Species.
Given back: 0 to 29%

Asked: Form field - read-out: pest or weed control at 140 g/ha; system: Key Broadleaf Weed and Crop Species; submitted item: Nc1cc(-c2ccc(Cl)c(F)c2CF)nc(C(=O)O)c1Cl [Compound 80]
Given back: 0 to 29%

Asked: Kindly state the measured pest or weed control at 140 g/ha obtained for COC(=O)c1nc(-c2cccnc2)c(F)c(N)c1Cl [Compound 50] with Key Broadleaf Weed and Crop Species.
Given back: 0 to 29%

Asked: Value wanted: pest or weed control at 140 g/ha (Key Broadleaf Weed and Crop Species) of entry CCc1c(-c2cc(N)c(Cl)c(C(=O)O)n2)ccc(Cl)c1F [Compound 86]
Given back: 0 to 29%

Asked: Form: Entry = Nc1c(F)c(-c2ccc(OC(F)F)nc2)nc(C(=O)O)c1Cl [Compound 66] | System = Key Broadleaf Weed and Crop Species | pest or weed control at 140 g/ha = ____
Given back: 95 to 100%

Asked: Give recorded pest or weed control at 140 g/ha with Key Broadleaf Weed and Crop Species for the following compound: COC(=O)c1nc(-c2ccc(Cl)c(Cl)c2C)cc(N)c1Cl [Compound 77]
Given back: 0 to 29%

Asked: Under Key Broadleaf Weed and Crop Species: pest or weed control at 140 g/ha value of COc1c(N)nc(-c2ccc(C(F)(F)F)nc2)nc1C(=O)O [Compound 5] ?
Given back: 95 to 100%
